Measured AUC(0-t) of individual entries
Method description: Pharmacokinetic study in rats
Assay type: in vivo, SD rats
Assay setup: male, SD, plasma, po; rat, intragastrically administered, 5 mg/kg

Smiles text	AUC(0-t) [ng·h/mL]
N#Cc1cnc(NC(=O)N2CCCc3cc(CN4CCN5CCC[C@H]5C4=O)c(C=O)nc32)cc1NC1CC1	4840
N#Cc1cnc(NC(=O)N2CCCc3cc(CN4CCN5CCC[C@@H]5C4=O)c(C=O)nc32)cc1NC1CC1	2250

====

Method description: Pharmacokinetic study in rats
Type: in vivo, SD rats
Assay setup: male, SD, plasma, iv; rat, intravenously injected, 2.0 mg/kg

Smiles text	AUC(0-t)
N#Cc1cnc(NC(=O)N2CCCc3cc(CN4CCN5CCC[C@@H]5C4=O)c(C=O)nc32)cc1NC1CC1	2550 ng·h/mL
N#Cc1cnc(NC(=O)N2CCCc3cc(CN4CCN5CCC[C@H]5C4=O)c(C=O)nc32)cc1NC1CC1	3980 ng·h/mL
